A set of compounds tested on Cholinesterase (Equus caballus), with measured pIC50:
pIC50: −log10 of the molar value.
Readout Label: pIC50

| Compound | Subject Of Test | Relation Qualifier | Numeric Result |
| --- | --- | --- | --- |
| COC1=C(Br)[C@H](O)[C@@]2(C=C1Br)CC(C(=O)NCCCCCNC(=N)N)=NO2 | Cholinesterase (Equus caballus) | = | 4.99 |
| COC1=C(Br)[C@H](O)[C@@]2(C=C1Br)CC(C(=O)NCCc1cc(Br)c(O)c(Br)c1)=NO2 | Cholinesterase (Equus caballus) | = | 4.97 |
| COC1=C(Br)[C@H](O)[C@@]2(C=C1Br)CC(C(N)=O)=NO2 | Cholinesterase (Equus caballus) | = | 4.81 |
| COC1=C(Br)[C@H](O)[C@@]2(C=C1Br)CC(C(=O)NCCCOc1c(Br)cc(C[C@H](N)C(=O)O)cc1Br)=NO2 | Cholinesterase (Equus caballus) | < | 4.00 |
| COC1=C(Br)[C@H](O)[C@@]2(C=C1Br)CC(C(=O)NCCc1cc(Br)c(OCCC(C(=O)[O-])[N+](C)(C)C)c(Br)c1)=NO2 (stereo not given in full) | Cholinesterase (Equus caballus) | = | 5.00 |

----------
// values below are IC50; system is Acetylcholinesterase (Electrophorus electricus, UniProt O42275)
Sequence (O42275 whole entry): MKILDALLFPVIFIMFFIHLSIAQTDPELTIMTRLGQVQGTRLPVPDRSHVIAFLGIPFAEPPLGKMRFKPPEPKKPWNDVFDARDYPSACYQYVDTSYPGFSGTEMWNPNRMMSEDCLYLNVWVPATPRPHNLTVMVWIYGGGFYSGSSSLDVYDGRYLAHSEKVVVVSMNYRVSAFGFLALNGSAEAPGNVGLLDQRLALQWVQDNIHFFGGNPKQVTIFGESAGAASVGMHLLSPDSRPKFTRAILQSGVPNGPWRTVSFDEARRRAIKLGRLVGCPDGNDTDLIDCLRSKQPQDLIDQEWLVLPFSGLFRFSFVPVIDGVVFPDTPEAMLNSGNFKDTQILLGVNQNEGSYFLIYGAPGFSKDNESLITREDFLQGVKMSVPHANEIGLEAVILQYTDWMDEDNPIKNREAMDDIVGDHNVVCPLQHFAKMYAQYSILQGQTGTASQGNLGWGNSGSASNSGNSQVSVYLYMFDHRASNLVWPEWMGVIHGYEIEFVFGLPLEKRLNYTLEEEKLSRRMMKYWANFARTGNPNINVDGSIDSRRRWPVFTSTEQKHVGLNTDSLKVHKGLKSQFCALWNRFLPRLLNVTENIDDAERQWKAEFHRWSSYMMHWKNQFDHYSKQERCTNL
Readout Label: IC50 (µM)

| Compound | Display Unit | Numeric Result |
| --- | --- | --- |
| COC1=C(Br)[C@H](O)[C@@]2(C=C1Br)CC(C(=O)NCCc1cc(Br)c(OCCC(C(=O)[O-])[N+](C)(C)C)c(Br)c1)=NO2 (stereo not given in full) | µM | 4.79 |
| COC1=C(Br)[C@H](O)[C@@]2(C=C1Br)CC(C(=O)NCCCOc1c(Br)cc(C[C@H](N)C(=O)O)cc1Br)=NO2 | µM | 19.9 |
| COC1=C(Br)[C@H](O)[C@@]2(C=C1Br)CC(C(=O)NCCc1cc(Br)c(O)c(Br)c1)=NO2 | µM | 5.8 |
| COC1=C(Br)[C@H](O)[C@@]2(C=C1Br)CC(C(=O)NCCCCCNC(=N)N)=NO2 | µM | 0.77 |
| COC1=C(Br)[C@H](O)[C@@]2(C=C1Br)CC(C(N)=O)=NO2 | µM | 3.32 |

----------
- Protocol Description: Selectivity index, ratio of IC50 for horse BuChE to IC50 for electric eel AChE

| Compound | Ratio IC50 |
| --- | --- |
| COC1=C(Br)[C@H](O)[C@@]2(C=C1Br)CC(C(=O)NCCc1cc(Br)c(O)c(Br)c1)=NO2 | 1.9 |
| COC1=C(Br)[C@H](O)[C@@]2(C=C1Br)CC(C(=O)NCCCOc1c(Br)cc(C[C@H](N)C(=O)O)cc1Br)=NO2 | > 5 |
| COC1=C(Br)[C@H](O)[C@@]2(C=C1Br)CC(C(=O)NCCc1cc(Br)c(OCCC(C(=O)[O-])[N+](C)(C)C)c(Br)c1)=NO2 (stereo not given in full) | 2.1 |
| COC1=C(Br)[C@H](O)[C@@]2(C=C1Br)CC(C(=O)NCCCCCNC(=N)N)=NO2 [APLYSINAMISINE II] | 13 |
| COC1=C(Br)[C@H](O)[C@@]2(C=C1Br)CC(C(N)=O)=NO2 | 4.6 |
